tested on: biotinyl-Phe-oxazolone; assay: self-aminoacylation, catalytic enhancement (BFO) (fold over background); higher = more active; k-Seq, kA / k0A0; sequences stand for … in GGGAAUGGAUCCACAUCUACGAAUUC…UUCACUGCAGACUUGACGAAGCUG
This sample holds only a part of the variants without activity.
// no strictly below 20 in self-aminoacylation; yes otherwise

Consider the worked cases shown below.
Sequence record: CUACUUCAAACAGUCGUUCUG [Fam1A.1 aminoacylation ribozyme variant]
Label class: no

Sequence record: CUUACCCUGGUCAUGGAGUGA [Fam2.1 aminoacylation ribozyme variant]
Label class: no

Sequence record: UUACUUCACACAAUCGGUCUG [Fam1A.1 aminoacylation ribozyme variant]
Label class: no

Sequence record: AGUCACCUAGGUCAUCGGGUA [Fam2.2 aminoacylation ribozyme variant]
Label class: yes

Exercise: Form field: self-aminoacylation at least 20? Entry: AUUCACAUAGGUCAUGGGGUG [Fam2.2 aminoacylation ribozyme variant]
Key: yes

Exercise: Record AAUUUUGUUAAUAGUCGCAAG [Fam3.1 aminoacylation ribozyme variant] ; criterion: self-aminoacylation no lower than 20. Met?
Key: no

Exercise: Please check the record GUUUACCUAGGUCAUCGGGUG [Fam2.2 aminoacylation ribozyme variant] and state if its self-aminoacylation is at or above 20.
Key: yes

Sourced from the supplement of paper PMC9233669
